For each record, write down the corresponding pIC50.
molecular target: recombinant GlPDE(aa588-1371) (Giardia intestinalis, UniProt A0A644EZ75); experiment: biochemical; format: biochemical
pIC50: −log10 of the molar value. Counter-ions that a name gives are not always drawn.

Sure, the documented pIC50 for Cc1[nH]c(=O)c(C#N)cc1-c1ccncc1 [Milrinone, milrinone] is < 4.00

Sure, the documented pIC50 for OCCN(CCO)c1nc(N2CCCCC2)c2nc(N(CCO)CCO)nc(N3CCCCC3)c2n1 [Dipyridamole, dipyridamole] is 4.58

Sure, the documented pIC50 for CCOC(=O)C1=C[C@]2(CC)CCCN3CCc4c(n1c1ccccc41)[C@@H]32 [Vinpocetine, vinpocetine] is < 4.00

Sure, the documented pIC50 for COc1cc(-c2ccc(=O)[nH]n2)ccc1OC(F)F [Zardaverine, zardaverine] is < 4.00

Sure, the documented pIC50 for CCCc1nn(C)c2c(=O)[nH]c(-c3cc(S(=O)(=O)N4CCN(C)CC4)ccc3OCC)nc12 [Sildenafil, sildenafil citrate] is < 4.00

Sure, the documented pIC50 for COc1cc2c(cc1OC)-c1c/c(=N\c3c(C)cc(C)cc3C)n(C)c(=O)n1CC2 [Trequinsin, trequinsin] is < 4.00

Sure, the documented pIC50 for COc1ccc(C(=O)Nc2c(Cl)cncc2Cl)cc1OC1CCCC1 [Piclamilast, piclamilast] is 4.95

Sure, the documented pIC50 for COc1ccc(Cc2nccc3cc(OC)c(OC)cc23)cc1OC [Papaverine, papaverine] is < 4.00

Sure, the documented pIC50 for O=C(Nc1c(Cl)cncc1Cl)c1ccc(OC(F)F)c(OCC2CC2)c1 [Roflumilast, roflumilast] is 5.22
